tested_target: Ac-AChBP (acetylcholine binding protein) (Aplysia californica)
Sequence (Q8WSF8 20-236): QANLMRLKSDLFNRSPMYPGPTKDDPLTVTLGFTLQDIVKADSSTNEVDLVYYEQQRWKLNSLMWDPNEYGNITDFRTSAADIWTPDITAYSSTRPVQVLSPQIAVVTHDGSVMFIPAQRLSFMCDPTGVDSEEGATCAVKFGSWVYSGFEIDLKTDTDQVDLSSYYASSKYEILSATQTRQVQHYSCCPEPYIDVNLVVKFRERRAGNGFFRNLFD
Positions of bridges follow the written chain, without caps; N, C: chain ends. Residues, ends and D or L forms follow the SMILES beside them.
attribute_measured: pKd
Give bare numbers, as −log10 of the molar value.

Fill in the blank: the reported pKd of CC[C@H](C)[C@@H]1NC(=O)[C@H](CCC(=O)O)NC(=O)[C@@H]2CCCN2C(=O)[C@H](Cc2cnc[nH]2)NC(=O)[C@H](CC(=O)O)NC(=O)[C@H](C(C)C)NC(=O)[C@H](CC(N)=O)NC(=O)[C@@H]2CSSC[C@H](NC(=O)CN)C(=O)N[C@@H](CSSC[C@@H](C(N)=O)NC1=O)C(=O)N[C@@H](C)C(=O)N[C@@H](Cc1cnc[nH]1)C(=O)N1CCC[C@H]1C(=O)N[C@@H](C)C(=O)N2 [LvIA (S4A)] (H-GCCAHPACNVDHPEIC-NH2; disulfide 2-8, 3-16) is ____.
7.62
